- System: panel of nearly 500 cancer cell lines
- experiment: Cancer Cell Line Encyclopedia profiling, 3-day CellTiter-Glo
- Type: cell-based
- testConditions: Homo sapiens, KMS-11
measuredMetric: pEC50
// scale note: pEC50 = -log10(conc_M); give the bare number

*Q* May I ask what pEC50 has been recorded for CN(C)C(=O)c1cc2cnc(Nc3ccc(N4CCNCC4)cn3)nc2n1C1CCCC1 [Ribociclib] ?
*A* 6.63

---

- Test system: panel of nearly 500 cancer cell lines
- experiment: Cancer Cell Line Encyclopedia profiling, 3-day CellTiter-Glo
- Type: cell-based
- testConditions: ncih2085 (lung); read-out: IC50
pIC50: −log10 of the molar value.
measuredMetric: pIC50

*Q* Which measured pIC50 belongs to CC(=O)c1c(C)c2cnc(Nc3ccc(N4CCNCC4)cn3)nc2n(C2CCCC2)c1=O , tested on panel of nearly 500 cancer cell lines?
*A* < 5.10

---

- Test system: panel of nearly 500 cancer cell lines
- experiment: Cancer Cell Line Encyclopedia profiling, 3-day CellTiter-Glo
- Assay type: cell-based
- testConditions: Homo sapiens, HCC1187
pIC50: −log10 of the molar value.
measuredMetric: pIC50

*Q* Need pIC50, item CN(C)C(=O)c1cc2cnc(Nc3ccc(N4CCNCC4)cn3)nc2n1C1CCCC1
*A* < 5.10

---

- Tested on: panel of nearly 500 cancer cell lines
- experiment: Cancer Cell Line Encyclopedia profiling, 3-day CellTiter-Glo
- Assay type: cell-based
- testConditions: Homo sapiens, NCI-H2122
measuredMetric: pEC50
# reply with the number alone; pEC50 is -log10 of concentration in mol/L

*Q* # query: pEC50 of entry CC(=O)c1c(C)c2cnc(Nc3ccc(N4CCNCC4)cn3)nc2n(C2CCCC2)c1=O [Palbociclib, reference compound]
*A* 6.78

---

- System: panel of nearly 500 cancer cell lines
- experiment: Cancer Cell Line Encyclopedia profiling, 3-day CellTiter-Glo
- Assay type: cell-based
- testConditions: ncih1373 (lung); read-out: IC50
measuredMetric: IC50

*Q* Suppose we examine the molecule CC(=O)c1c(C)c2cnc(Nc3ccc(N4CCNCC4)cn3)nc2n(C2CCCC2)c1=O ; what IC50 value has been reported?
*A* > 8 µM

---

- System: panel of nearly 500 cancer cell lines
- experiment: Cancer Cell Line Encyclopedia profiling, 3-day CellTiter-Glo
- Type: cell-based
- testConditions: ht1376 (urinary_tract); read-out: IC50
pIC50: −log10 of the molar value.
measuredMetric: pIC50

*Q* // pIC50 lookup, key: CC(=O)c1c(C)c2cnc(Nc3ccc(N4CCNCC4)cn3)nc2n(C2CCCC2)c1=O
*A* < 5.10

---

- System: panel of nearly 500 cancer cell lines
- experiment: Cancer Cell Line Encyclopedia profiling, 3-day CellTiter-Glo
- Type: cell-based
- testConditions: Homo sapiens, MDA-MB-157
pEC50: −log10 of the molar value.
The reader will find reported pEC50 values listed item by item below.

# molecule, pEC50
data = [
    ("CN(C)C(=O)c1cc2cnc(Nc3ccc(N4CCNCC4)cn3)nc2n1C1CCCC1 [Ribociclib]", "< 5.10"),
]

Proceeding to the next molecule to report its pEC50.
*Q* Item under review: CC(=O)c1c(C)c2cnc(Nc3ccc(N4CCNCC4)cn3)nc2n(C2CCCC2)c1=O [Palbociclib, reference compound] . Reported pEC50?
*A* < 5.10
